Molecular target: Human sputum neutrophil elastase (Homo sapiens)
Test: Inhibitor IC50 against human neutrophil elastase (fluorogenic MeOSuc-AAPV-AMC substrate)
Conditions: 20 min preincubation, read-out: HNE IC50
This section presents molecules with their documented IC50 values.

COc1cc(C(C)C)c2c(=O)oc(-c3cccnc3N3CCN(CCN(C)C)CC3)nc2c1 :: 61 to 150 nM

The molecule listed as Cc1cccc2nc(-c3cccnc3N3CCC(N(C)C)C3)oc(=O)c12 (stereo not shown) shows IC50 equal to 61 to 150 nM

Just so you know, measured IC50 for CCc1cc(OC)cc2nc(-c3cccnc3N3CCN(CCC(=O)O)CC3)oc(=O)c12 came out at < 15 nM

Looking up CCc1cc(OC)cc2nc(-c3cccnc3N3CCN(CC4OCCO4)CC3)oc(=O)c12 , I see its IC50 listed as < 15 nM

According to the records, this molecule CCc1cc(OC)cc2nc(-c3ccc(N4CCN(C)CC4)nc3)oc(=O)c12 displays IC50 of 16 to 60 nM

Record CCc1cccc2nc(-c3cccnc3-n3cc[n+](Cc4ccc(Cl)cc4)c3)oc(=O)c12 , field IC50: 16 to 60 nM

CCN(CC)CC1CN(c2ncccc2-c2nc3cccc(C)c3c(=O)o2)CCO1 (stereo not shown) yielded IC50 of > 150 nM

Kindly note the recorded IC50 for CCc1cc(OC)cc2nc(-c3cccnc3N3CCC(CCN(C)C)CC3)oc(=O)c12 , which is < 15 nM

Record COc1cc(C(C)C)c2c(=O)oc(-c3cccnc3N3CC[C@@H](N(C)C)C3)nc2c1 , field IC50: 61 to 150 nM

What the record says about COc1cc(C(C)C)c2c(=O)oc(-c3cnn(C)c3N3CCN(C)CC3)nc2c1 : IC50 is > 150 nM

Lookup result for O=c1oc(-c2ncccc2-n2ccnc2)nc2cccc(Cl)c12 ; measured IC50: > 150 nM

So, CCc1cc(OC)cc2nc(-c3cccnc3N3C[C@H](CNC4CC4)[C@H](F)C3)oc(=O)c12 ? Its IC50 was 16 to 60 nM

====

Biological target: Human sputum neutrophil elastase (Homo sapiens, UniProt P08246)
Sequence (P08246 30-247 limits assumed): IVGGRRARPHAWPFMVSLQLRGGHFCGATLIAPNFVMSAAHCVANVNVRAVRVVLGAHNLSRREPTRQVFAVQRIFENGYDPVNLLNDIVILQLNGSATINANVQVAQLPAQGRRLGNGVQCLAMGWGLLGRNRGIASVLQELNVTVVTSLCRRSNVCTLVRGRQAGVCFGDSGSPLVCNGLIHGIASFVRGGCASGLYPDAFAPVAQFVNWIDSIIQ
Assay: Inhibitor IC50 against human neutrophil elastase (fluorogenic MeOSuc-AAPV-AMC substrate)
Conditions: 20 min preincubation, read-out: HNE IC50
Recorded IC50, one value per entry.

Example results:
COc1cc(C(C)C)c2c(=O)oc(-c3cccnc3N3CC[N+](C)(CC(N)=O)CC3)nc2c1 :: 61 to 150 nM
Cc1cccc2nc(-c3cccnc3N3CCC[C@H]3C(=O)OC(C)(C)C)oc(=O)c12 :: 16 to 60 nM

Lab note: CCc1cc(OC)cc2nc(-c3cccnc3N3CCCC(N(C)C)C3)oc(=O)c12 (stereo not shown) gave IC50 of 16 to 60 nM

The compound O=c1oc(-c2ccccn2)nc2ccccc12 showed IC50 equal to > 150 nM
